This listing pairs compounds with measured viability at 24 h, 10 µM.
- test.details: Cellular viability, CCK cell viability assay
- Format: cell-based
- measurement.parameters: human, MRC-5 cells (normal fetal lung fibroblasts)

Which viability at 24 h, 10 µM is listed for O=C1CSC(c2c(F)cccc2F)N1c1nc(-c2ccc(S(=O)(=O)N3CCOCC3)cc2)cs1 (centres unmarked) ? > 50%

Which viability at 24 h, 10 µM is listed for O=C1CSC(c2c(Cl)cccc2Cl)N1c1nc2ccc(C(F)(F)F)cc2s1 (centres unmarked) ? 57.9%

Which viability at 24 h, 10 µM is listed for O=C1CSC(c2ccc(F)cc2)N1c1nc(-c2ccc(S(=O)(=O)N3CCOCC3)cc2)cs1 (centres unmarked) ? > 50%

Which viability at 24 h, 10 µM is listed for O=C1CSC(c2c(F)cccc2F)N1c1nc2cc(-c3ccccc3)c(-c3ccccc3)cc2s1 (centres unmarked) ? > 50%

Which viability at 24 h, 10 µM is listed for O=C1CSC(c2ccc(F)cc2)N1c1cccc(S(=O)(=O)Nc2nccs2)c1 (centres unmarked) ? > 50%

Which viability at 24 h, 10 µM is listed for O=C1CSC(c2c(Cl)cccc2Cl)N1c1nc(-c2ccc(F)cc2)cs1 (centres unmarked) ? > 50%

Which viability at 24 h, 10 µM is listed for O=C1CSC(c2ccc(F)cc2)N1c1nc(-c2cccc(S(=O)(=O)N3CCCC3)c2)cs1 (centres unmarked) ? > 50%

Which viability at 24 h, 10 µM is listed for COc1ccc(OC)c(C2SCC(=O)N2c2nc(-c3cccc(S(=O)(=O)N4CCCC4)c3)cs2)c1 (centres unmarked) ? > 50%

###

This listing pairs molecules with measured IC50.
- target.desc: recombinant HIV-1 RT (Human immunodeficiency virus type 1 group M subtype B)
- Construct: recombinant HIV-1 RT
- test.details: HIV-1 RT RDDP inhibitory activity (Roche colorimetric immunoassay kit)

O=C1CSC(c2ccc(F)cc2)N1c1nc(-c2ccc(S(=O)(=O)N3CCOCC3)cc2)cs1 (stereo not drawn) ... > 4 µM
O=C1CSC(c2c(Cl)cccc2Cl)N1c1nc(-c2ccc(F)cc2)cs1 (stereo not drawn) ... > 4 µM
O=C1CSC(c2c(F)cccc2Cl)N1c1nc2ccc(C(F)(F)F)cc2s1 (stereo not drawn) ... 0.32 µM

# get_value(readout= IC50, system= recombinant HIV-1 RT (Human immunodeficiency virus type 1 group M subtype B)) for O=C1CSC(c2ccccc2O)N1c1nc(-c2cccc(S(=O)(=O)N3CCCC3)c2)cs1 (stereo not drawn) > 4 µM

# get_value(readout= IC50, system= recombinant HIV-1 RT (Human immunodeficiency virus type 1 group M subtype B)) for O=C1CSC(c2c(Cl)cccc2Cl)N1c1nc2ccc(C(F)(F)F)cc2s1 (stereo not drawn) > 4 µM

# get_value(readout= IC50, system= recombinant HIV-1 RT (Human immunodeficiency virus type 1 group M subtype B)) for O=C1CSC(c2c(F)cccc2F)N1c1nc(-c2ccc(F)cc2)cs1 (stereo not drawn) > 4 µM

# get_value(readout= IC50, system= recombinant HIV-1 RT (Human immunodeficiency virus type 1 group M subtype B)) for N#Cc1ccc2nc(N3C(=O)CSC3c3c(F)cccc3F)sc2c1 (stereo not drawn) > 4 µM

# get_value(readout= IC50, system= recombinant HIV-1 RT (Human immunodeficiency virus type 1 group M subtype B)) for O=C1CSC(c2c(F)cccc2F)N1c1nc2cc(-c3ccccc3)c(-c3ccccc3)cc2s1 (stereo not drawn) > 4 µM

# get_value(readout= IC50, system= recombinant HIV-1 RT (Human immunodeficiency virus type 1 group M subtype B)) for COc1ccc(OC)c(C2SCC(=O)N2c2nc(-c3ccc(S(=O)(=O)N4CCOCC4)cc3)cs2)c1 (stereo not drawn) 0.72 µM

# get_value(readout= IC50, system= recombinant HIV-1 RT (Human immunodeficiency virus type 1 group M subtype B)) for O=C1CSC(c2ccc(F)cc2)N1c1nc(-c2cccc(S(=O)(=O)N3CCCC3)c2)cs1 (stereo not drawn) > 4 µM

# get_value(readout= IC50, system= recombinant HIV-1 RT (Human immunodeficiency virus type 1 group M subtype B)) for COc1ccc(OC)c(C2SCC(=O)N2c2nc(-c3cccc(S(=O)(=O)N4CCCC4)c3)cs2)c1 (stereo not drawn) 0.58 µM

# get_value(readout= IC50, system= recombinant HIV-1 RT (Human immunodeficiency virus type 1 group M subtype B)) for O=C1CSC(c2c(F)cccc2F)N1c1nc(-c2ccc(S(=O)(=O)N3CCOCC3)cc2)cs1 (stereo not drawn) > 4 µM

# get_value(readout= IC50, system= recombinant HIV-1 RT (Human immunodeficiency virus type 1 group M subtype B)) for O=C1CSC(c2ccc(F)cc2)N1c1cccc(S(=O)(=O)Nc2nccs2)c1 (stereo not drawn) 2.23 µM

# get_value(readout= IC50, system= recombinant HIV-1 RT (Human immunodeficiency virus type 1 group M subtype B)) for O=C1CSC(c2c(Cl)cccc2Cl)N1c1nc(-c2ccc(S(=O)(=O)N3CCOCC3)cc2)cs1 (stereo not drawn) > 4 µM

# get_value(readout= IC50, system= recombinant HIV-1 RT (Human immunodeficiency virus type 1 group M subtype B)) for O=C1CSC(c2c(F)cccc2F)N1c1nc(-c2cccc(S(=O)(=O)N3CCCC3)c2)cs1 (stereo not drawn) > 4 µM

This collection of values is drawn from paper PMC11946194.
